System tested: PDGF-BB (Homo sapiens) (UniProt P01127)
Protocol: filter
Particulars: Bn-dU; 2'-OMe at position 29
Readout kind: Kd

## Input Name the reported Kd value associated with the sequence TTACGACTACGTTACACGCGTTTATAGCG [4149-8_63]
## Output < 10 nM
